# system_name: thromboxane synthetase enzyme (Rattus norvegicus)
# Construct: from tissue; host or cells: washed blood platelets from Okamoto-Aoki spontaneously hypertensive rats (SHR)
# Sequence (P49430 1-533): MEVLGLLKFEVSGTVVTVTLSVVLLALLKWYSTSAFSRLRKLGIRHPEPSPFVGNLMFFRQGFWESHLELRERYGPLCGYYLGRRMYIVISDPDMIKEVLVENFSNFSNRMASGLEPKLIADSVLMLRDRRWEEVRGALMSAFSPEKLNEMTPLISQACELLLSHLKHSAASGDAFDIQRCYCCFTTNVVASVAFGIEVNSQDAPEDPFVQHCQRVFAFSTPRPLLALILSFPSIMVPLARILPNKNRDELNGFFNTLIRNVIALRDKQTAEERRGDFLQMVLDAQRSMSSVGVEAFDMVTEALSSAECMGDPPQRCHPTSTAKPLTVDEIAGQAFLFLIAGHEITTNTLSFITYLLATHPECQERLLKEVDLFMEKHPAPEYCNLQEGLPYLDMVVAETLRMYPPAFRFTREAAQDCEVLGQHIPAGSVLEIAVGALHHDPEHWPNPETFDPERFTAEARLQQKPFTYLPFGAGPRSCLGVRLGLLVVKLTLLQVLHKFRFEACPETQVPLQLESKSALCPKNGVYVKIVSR
# protocol_summary: Inhibition of thromboxane (TXB2) formation in washed rat platelets, TXB2 radioimmunoassay
# Assay type: biochemical, Okamoto-Aoki spontaneously hypertensive rats (SHR)
# experimental_conditions: Concentration 1x10^-4M, platelet suspension incubated 10 minutes at 37 °C
# Method: Under urethan anesthesia, […] of arterial blood from Okamoto-Aoki spontaneously hypertensive rats (SHR) (Taconic Farms, Germantown, NY) between 19 and 24 weeks in age is collected in one ml of 3.2% sodium citrate in a polystyrene tube. The blood is diluted with 3 ml of cold saline and centrifuged at room temperature for 15 minutes at 460xg. The platelet rich plasma (PRP) is separated. […]
Where a name gives a salt, the structure may show the parent alone.
recorded_metric: inhibition at 100 µM (%)

compound=O=[N+]([O-])c1cccnc1NCCCCc1ccncc1 observed_value=88
compound=c1ccc(-c2cc(NCCCCc3cccnc3)nc3ccccc23)cc1 observed_value=99
compound="O=[N+]([O-])c1ccc(Cl)nc1NCCCn1ccnc1 [Example 57, monohydrochloride]" observed_value=94
compound=c1ccc(-n2nc3ccc(NCCCn4ccnc4)nc3n2)cc1 observed_value=95
